# assay-system: Protein kinase C gamma type (Homo sapiens) (UniProt P05129)
# run-parameters: at 10 µM
recorded-endpoint: residual activity (%)

structure-smiles: O=C(O)c1ccc2c3c1cccc3c(=O)n1c3ccccc3nc21
experimental-value: 74
//
structure-smiles: O=C1Nc2cc(Br)ccc2/C1=C1/Nc2ccccc2/C1=N\O
experimental-value: 107
//
structure-smiles: CC(C)n1cnc2/c(=N/c3cccc(Cl)c3)nc(NCCO)[nH]c21
experimental-value: 70
//
structure-smiles: Nc1ccc2ncnc(NCCc3ccc(Oc4ccccc4)cc3)c2c1
experimental-value: 111
//
structure-smiles: O=C1Nc2ccc(Br)cc2/C1=C\c1cc2c([nH]1)CCCC2
experimental-value: 111
//
structure-smiles: c1ccc2c(-c3ccncc3)c[nH]c2c1
experimental-value: 86
//
structure-smiles: CCC(=O)Nc1ccc2ncnc(Nc3cccc(Br)c3)c2c1
experimental-value: 100
//
structure-smiles: Oc1n[nH]c2nnc(-c3c(-c4ccccc4)nn4ccccc34)cc12
experimental-value: 103
//
structure-smiles: COc1ccc(C(=O)Nc2sc3c(c2C(N)=O)CCCC3)cc1OC
experimental-value: 104
//
structure-smiles: CCN(CC)C(=O)c1ccc(Nc2nc(OCC3CCCCC3)c3nc[nH]c3n2)cc1
experimental-value: 13
//
structure-smiles: Cn1nc2c3c(cccc31)C(=O)c1ccccc1-2
experimental-value: 101
//
structure-smiles: COc1cccc(-c2cc(=O)c3ccccc3o2)c1N
experimental-value: 119
//
structure-smiles: CC(=O)O/N=C1\C(=C2\C(=O)Nc3cc(Br)ccc32)Nc2ccccc21
experimental-value: 109
//
structure-smiles: O=C(Nc1cccc(Nc2cc(Nc3cccc(C(F)(F)F)c3)ncn2)c1)C1CC1
experimental-value: 106
//
structure-smiles: CCN(CC)CCCCN1c2ccccc2Oc2ccc(Cl)cc21
experimental-value: 108
//
structure-smiles: Nc1nc(Nc2ccc(S(N)(=O)=O)cc2)nn1C(=S)Nc1c(F)cccc1F
experimental-value: 66
//
structure-smiles: O=C(Nc1cccc(Nc2nccc(Nc3cccc(C(F)(F)F)c3)n2)c1)C1CC1
experimental-value: 90
//
structure-smiles: CO[C@@H]1[C@H](N(C)C(=O)c2ccccc2)C[C@H]2O[C@]1(C)n1c3ccccc3c3c4c(c5c6ccccc6n2c5c31)C(=O)NC4
experimental-value: 6
//
structure-smiles: Cc1cc2ncc(-c3ccccc3)nc2cc1C
experimental-value: 105
//
structure-smiles: CNc1cc2c(Nc3cccc(Br)c3)ncnc2cn1
experimental-value: 94
//
structure-smiles: Oc1ccc(Nc2nc(-c3ccc(Cl)cc3)cs2)cc1
experimental-value: 105
//
structure-smiles: C[C@@H](N)[C@H]1CC[C@H](C(=O)Nc2ccncc2)CC1
experimental-value: 96
//
structure-smiles: COc1cc2ncnc(N3CCN(C(=O)Nc4ccc(Oc5ccccc5)cc4)CC3)c2cc1OC
experimental-value: 107
//
structure-smiles: Nc1n[nH]c2nnc(-c3c(-c4ccccc4)nn4ccccc34)cc12
experimental-value: 98
//
structure-smiles: COc1cc2ncnc(Nc3ccc(Oc4ccccc4)cc3)c2cc1OC
experimental-value: 97

* * *

# assay-system: Proto-oncogene tyrosine-protein kinase receptor Ret (Homo sapiens) (UniProt P07949)
# Sequence (P07949 whole entry): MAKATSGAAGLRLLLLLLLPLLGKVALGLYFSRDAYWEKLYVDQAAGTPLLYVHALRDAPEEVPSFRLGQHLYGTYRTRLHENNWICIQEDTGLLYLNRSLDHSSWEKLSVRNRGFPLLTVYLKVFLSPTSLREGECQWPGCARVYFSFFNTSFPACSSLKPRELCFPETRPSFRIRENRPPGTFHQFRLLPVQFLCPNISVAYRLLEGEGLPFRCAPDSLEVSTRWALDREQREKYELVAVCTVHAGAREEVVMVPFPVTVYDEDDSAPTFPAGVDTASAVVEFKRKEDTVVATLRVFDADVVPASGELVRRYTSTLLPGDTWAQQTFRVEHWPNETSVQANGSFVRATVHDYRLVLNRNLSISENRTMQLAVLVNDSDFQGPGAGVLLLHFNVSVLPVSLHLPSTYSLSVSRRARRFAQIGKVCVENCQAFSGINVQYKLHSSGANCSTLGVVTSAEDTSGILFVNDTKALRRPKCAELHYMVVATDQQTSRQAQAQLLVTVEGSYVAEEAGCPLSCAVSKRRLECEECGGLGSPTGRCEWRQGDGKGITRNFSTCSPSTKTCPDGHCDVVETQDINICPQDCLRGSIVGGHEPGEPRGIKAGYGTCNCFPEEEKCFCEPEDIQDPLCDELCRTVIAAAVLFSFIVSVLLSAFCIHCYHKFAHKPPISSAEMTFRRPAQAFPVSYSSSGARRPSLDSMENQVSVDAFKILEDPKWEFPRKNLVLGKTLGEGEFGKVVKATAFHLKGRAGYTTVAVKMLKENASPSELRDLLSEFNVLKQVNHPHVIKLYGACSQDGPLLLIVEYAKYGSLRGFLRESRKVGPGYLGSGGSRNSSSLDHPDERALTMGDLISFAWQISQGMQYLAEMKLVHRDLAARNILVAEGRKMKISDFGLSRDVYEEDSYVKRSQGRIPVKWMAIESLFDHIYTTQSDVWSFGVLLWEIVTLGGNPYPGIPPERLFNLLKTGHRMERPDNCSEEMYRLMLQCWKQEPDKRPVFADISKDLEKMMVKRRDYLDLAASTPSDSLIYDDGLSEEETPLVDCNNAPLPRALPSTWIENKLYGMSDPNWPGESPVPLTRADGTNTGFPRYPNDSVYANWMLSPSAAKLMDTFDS
# run-parameters: at 1 µM

structure-smiles: Cc1cncc2cccc(S(=O)(=O)N3CCCN(C(=O)CN)C[C@H]3C)c12
residual activity, %: 91
//
structure-smiles: O=C1NC(=O)c2cc(Nc3ccc(F)cc3)c(Nc3ccc(F)cc3)cc21
residual activity, %: 91
//
structure-smiles: O=C1NC(=O)/C(=C/c2ccc3c(c2)OC(F)(F)O3)S1
residual activity, %: 91
